System: SNARE complex (VAMP, syntaxin and SNAP-25 bound to GST) (UniProt P60880)
Sequence (P60880 whole entry, one chain of several): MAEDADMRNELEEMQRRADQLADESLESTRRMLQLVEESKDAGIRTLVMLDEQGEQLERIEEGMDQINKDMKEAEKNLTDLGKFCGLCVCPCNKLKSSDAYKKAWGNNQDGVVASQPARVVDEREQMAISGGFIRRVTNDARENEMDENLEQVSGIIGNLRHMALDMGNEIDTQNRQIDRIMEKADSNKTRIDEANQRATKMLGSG
Experiment: competition ELISA: VAMP on plate, SNAP-25-GST + syntaxin, anti-GST detection; compound at 0.5 mM
*: point of attachment. Palmitoyl = CCCCCCCCCCCCCCCC(=O)*; NHhexadecyl = CCCCCCCCCCCCCCCCN*
Assay Metric: % inhibition formation SNARE complex (%)
Numbers only here, please. The scale is %.

Ac-EDLKRWM-NHhexadecyl [Ac-SEQ ID NO:14-NH-(CH2)15-CH3] | 11
Ac-QHLHNVM-NH2 [Ac-SEQ ID NO:3-NH2] | 31
Ac-DHLKKWM-NH2 [Ac-SEQ ID NO:22-NH2] | 18
Ac-NDLKDWM-NH2 [Ac-SEQ ID NO:23-NH2] | 10

Short answer for Palmitoyl-DHFLNWM-NH2 [Palm-SEQ ID NO:34-NH2] : % inhibition formation SNARE complex was 19

// % inhibition formation SNARE complex value for Ac-EHLKQWM-NH2 [Ac-SEQ ID NO:1-NH2] : 33

In plain terms, Ac-NHFLNWM-NH2 [Ac-SEQ ID NO:15-NH2] has a documented % inhibition formation SNARE complex of 48

Sure, the documented % inhibition formation SNARE complex for Ac-QDFLHWM-NH2 [Ac-SEQ ID NO:2-NH2] is 26
